biological target: Substance-P receptor (Homo sapiens)
Sequence (P25103 whole entry): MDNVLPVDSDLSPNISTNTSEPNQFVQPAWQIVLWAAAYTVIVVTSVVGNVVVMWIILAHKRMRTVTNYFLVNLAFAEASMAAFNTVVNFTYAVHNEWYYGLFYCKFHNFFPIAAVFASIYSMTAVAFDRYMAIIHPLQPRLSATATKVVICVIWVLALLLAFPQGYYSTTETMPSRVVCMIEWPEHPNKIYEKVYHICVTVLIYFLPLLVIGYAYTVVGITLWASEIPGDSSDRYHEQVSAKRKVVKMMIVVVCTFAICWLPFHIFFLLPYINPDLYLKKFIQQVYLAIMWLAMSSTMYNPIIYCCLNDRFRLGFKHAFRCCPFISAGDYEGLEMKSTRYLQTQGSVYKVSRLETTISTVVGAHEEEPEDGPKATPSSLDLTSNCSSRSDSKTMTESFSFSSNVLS

smiles data	IC50
C[C@H](NC(=O)[C@](Cc1c[nH]c2ccccc12)(CN(C)C)NC(=O)OCc1cc2ccccc2o1)c1ccccc1	0.46 nM
